system-under-test: SMARCA4-HiBiT HeLa cells (protein which is expressed from the SMARCA4 gene) (Homo sapiens, UniProt P51532)
Construct: protein which is expressed from the SMARCA2 and SMARCA4 genes; host or cells: HeLa (SMARCA4-HiBiT engineered line)
Sequence (P51532 whole entry): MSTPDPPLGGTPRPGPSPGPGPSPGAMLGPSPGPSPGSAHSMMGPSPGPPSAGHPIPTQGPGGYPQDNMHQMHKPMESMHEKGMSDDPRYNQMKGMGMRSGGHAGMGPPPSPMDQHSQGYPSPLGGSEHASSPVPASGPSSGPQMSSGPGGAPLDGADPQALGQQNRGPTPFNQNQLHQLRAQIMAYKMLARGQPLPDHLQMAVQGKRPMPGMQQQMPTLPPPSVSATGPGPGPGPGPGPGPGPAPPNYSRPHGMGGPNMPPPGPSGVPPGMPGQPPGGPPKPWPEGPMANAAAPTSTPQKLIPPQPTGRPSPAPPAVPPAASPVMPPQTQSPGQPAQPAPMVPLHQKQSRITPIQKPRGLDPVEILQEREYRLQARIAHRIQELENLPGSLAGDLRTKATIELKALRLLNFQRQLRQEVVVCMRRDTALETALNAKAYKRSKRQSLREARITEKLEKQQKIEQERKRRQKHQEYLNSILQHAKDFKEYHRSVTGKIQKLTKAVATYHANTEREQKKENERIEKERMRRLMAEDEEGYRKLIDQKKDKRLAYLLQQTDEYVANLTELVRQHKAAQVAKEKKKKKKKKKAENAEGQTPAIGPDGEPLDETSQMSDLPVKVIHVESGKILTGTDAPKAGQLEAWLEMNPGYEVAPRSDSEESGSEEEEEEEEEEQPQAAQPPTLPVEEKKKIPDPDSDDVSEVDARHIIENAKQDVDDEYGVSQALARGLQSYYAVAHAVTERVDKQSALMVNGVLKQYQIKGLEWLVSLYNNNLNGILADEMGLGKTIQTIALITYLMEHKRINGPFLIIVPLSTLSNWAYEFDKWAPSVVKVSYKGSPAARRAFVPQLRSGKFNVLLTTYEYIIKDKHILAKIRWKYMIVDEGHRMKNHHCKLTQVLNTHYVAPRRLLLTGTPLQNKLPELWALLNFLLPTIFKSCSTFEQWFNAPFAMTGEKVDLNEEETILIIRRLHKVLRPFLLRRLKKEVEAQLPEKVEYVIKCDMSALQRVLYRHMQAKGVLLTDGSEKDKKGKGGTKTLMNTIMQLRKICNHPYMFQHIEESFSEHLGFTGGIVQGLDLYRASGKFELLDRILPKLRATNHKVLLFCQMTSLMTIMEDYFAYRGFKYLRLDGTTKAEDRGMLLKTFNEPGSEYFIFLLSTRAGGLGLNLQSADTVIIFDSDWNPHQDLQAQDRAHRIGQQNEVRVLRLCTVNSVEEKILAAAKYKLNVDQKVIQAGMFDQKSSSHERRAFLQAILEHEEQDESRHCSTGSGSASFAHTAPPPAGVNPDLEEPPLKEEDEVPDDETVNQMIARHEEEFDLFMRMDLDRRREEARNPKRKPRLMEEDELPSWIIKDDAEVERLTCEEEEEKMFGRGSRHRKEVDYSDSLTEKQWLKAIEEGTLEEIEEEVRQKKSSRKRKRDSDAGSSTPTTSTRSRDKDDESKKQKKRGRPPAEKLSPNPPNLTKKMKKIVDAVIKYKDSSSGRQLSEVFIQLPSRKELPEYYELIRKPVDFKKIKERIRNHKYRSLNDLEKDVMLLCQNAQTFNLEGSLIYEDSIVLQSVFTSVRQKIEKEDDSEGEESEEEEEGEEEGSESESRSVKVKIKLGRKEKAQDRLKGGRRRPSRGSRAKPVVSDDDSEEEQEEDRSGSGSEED
method-summary: SMARCA4 degradation assay (HiBiT-fusion HeLa cell line, 24 h, luminescence)
Assay type: cell-based
measured-quantity: DC50

In [3]: df
Out[3]:
                                    molecule  reported_value
 0  CN(C)CC#Cc1nccc(N2CCCN(c3cc(-c4ccccc4O)nnc3N)CC2)n1 [Compound P-152]    50 to 500 nM
 1  CN(C)CC#Cc1cc(N2C3CCC2CN(c2cc(-c4ccccc4O)nnc2N)CC3)ccn1 (stereo not shown) [Compound P-382]         < 50 nM
 2  CNCC#Cc1nccc(N2CCCN(c3cc(-c4ccccc4O)nnc3N)CC2)n1 [Compound P-147]    50 to 500 nM
 3  Nc1nnc(-c2ccccc2O)cc1N1CCN(c2ccnc(C#CCCCNC(=O)c3cc4ncccn4n3)n2)CC1 [Compound P-92]    50 to 500 nM
 4  NCC#Cc1nccc(N2CC3CN(c4cc(-c5ccccc5O)nnc4N)C3C2)n1 (stereo not shown) [Compound P-84]       > 5000 nM
 5  CC(C)(C)OC(=O)NCC#Cc1nccc(NC2CN(c3cc(-c4ccccc4O)nnc3N)C2)n1 [Compound P-307]    50 to 500 nM
 6  C[C@@H]1CCN(c2cc(-c3ccccc3O)nnc2N)CCN1c1ccnc(C#CCN2CC3CC2C3)c1 [Compound P-392]    50 to 500 nM
 7  Nc1nnc(-c2ccccc2O)cc1OC1CC2CN(c3ccnc(C#CCn4ccnc4)n3)CC2C1 (stereo not shown) [Compound P-219]    50 to 500 nM
 8  C[C@@H]1CCN(c2cc(-c3ccccc3O)nnc2N)CCN1c1ccnc(C#CCn2cncn2)n1 [Compound P-333]    50 to 500 nM
 9  Nc1nnc(-c2ccccc2O)cc1N1CCN(c2ccnc(C#CCNC(=O)c3cccnc3)n2)CC1 [Compound P-4]    50 to 500 nM
10  Nc1nnc(-c2ccccc2O)cc1N1CC2CCC(C1)N2c1ccnc(C#CCn2cccn2)n1 [Compound P-133]    50 to 500 nM
11  CN(C)CC#Cc1nccc(N2CC(n3cc(-c4cc(-c5ccccc5O)nnc4N)cn3)C2)n1 [Compound P-216]         < 50 nM
12  CN(C)c1cc(N2CCCN(c3cc(-c4ccccc4O)nnc3N)CC2)nc(C#CCNC(=O)c2cc3ncccn3n2)n1 [Compound P-139]  500 to 5000 nM
13  CC[C@H](C)NCC#Cc1nccc(N2CCCN(c3cc(-c4ccccc4O)nnc3N)CC2)n1 [Compound P-257]    50 to 500 nM
14  Cc1nccn1CC#Cc1nccc(N2CCN(c3cc(-c4ccccc4O)nnc3N)CC[C@H]2C)n1 [Compound P-186]    50 to 500 nM
15  C[C@@H]1CCN(c2cc(-c3ccccc3O)nnc2N)CCN1c1ccnc(C#CC2CCCO2)n1 (stereo partly shown) [Compound P-211]  500 to 5000 nM

###

system-under-test: SMARCA2-HiBiT HeLa cells (protein which is expressed from the SMARCA2 gene) (Homo sapiens, UniProt P51531)
Construct: protein which is expressed from the SMARCA2 and SMARCA4 genes; host or cells: HeLa (SMARCA2-HiBiT engineered line)
Sequence (P51531 whole entry): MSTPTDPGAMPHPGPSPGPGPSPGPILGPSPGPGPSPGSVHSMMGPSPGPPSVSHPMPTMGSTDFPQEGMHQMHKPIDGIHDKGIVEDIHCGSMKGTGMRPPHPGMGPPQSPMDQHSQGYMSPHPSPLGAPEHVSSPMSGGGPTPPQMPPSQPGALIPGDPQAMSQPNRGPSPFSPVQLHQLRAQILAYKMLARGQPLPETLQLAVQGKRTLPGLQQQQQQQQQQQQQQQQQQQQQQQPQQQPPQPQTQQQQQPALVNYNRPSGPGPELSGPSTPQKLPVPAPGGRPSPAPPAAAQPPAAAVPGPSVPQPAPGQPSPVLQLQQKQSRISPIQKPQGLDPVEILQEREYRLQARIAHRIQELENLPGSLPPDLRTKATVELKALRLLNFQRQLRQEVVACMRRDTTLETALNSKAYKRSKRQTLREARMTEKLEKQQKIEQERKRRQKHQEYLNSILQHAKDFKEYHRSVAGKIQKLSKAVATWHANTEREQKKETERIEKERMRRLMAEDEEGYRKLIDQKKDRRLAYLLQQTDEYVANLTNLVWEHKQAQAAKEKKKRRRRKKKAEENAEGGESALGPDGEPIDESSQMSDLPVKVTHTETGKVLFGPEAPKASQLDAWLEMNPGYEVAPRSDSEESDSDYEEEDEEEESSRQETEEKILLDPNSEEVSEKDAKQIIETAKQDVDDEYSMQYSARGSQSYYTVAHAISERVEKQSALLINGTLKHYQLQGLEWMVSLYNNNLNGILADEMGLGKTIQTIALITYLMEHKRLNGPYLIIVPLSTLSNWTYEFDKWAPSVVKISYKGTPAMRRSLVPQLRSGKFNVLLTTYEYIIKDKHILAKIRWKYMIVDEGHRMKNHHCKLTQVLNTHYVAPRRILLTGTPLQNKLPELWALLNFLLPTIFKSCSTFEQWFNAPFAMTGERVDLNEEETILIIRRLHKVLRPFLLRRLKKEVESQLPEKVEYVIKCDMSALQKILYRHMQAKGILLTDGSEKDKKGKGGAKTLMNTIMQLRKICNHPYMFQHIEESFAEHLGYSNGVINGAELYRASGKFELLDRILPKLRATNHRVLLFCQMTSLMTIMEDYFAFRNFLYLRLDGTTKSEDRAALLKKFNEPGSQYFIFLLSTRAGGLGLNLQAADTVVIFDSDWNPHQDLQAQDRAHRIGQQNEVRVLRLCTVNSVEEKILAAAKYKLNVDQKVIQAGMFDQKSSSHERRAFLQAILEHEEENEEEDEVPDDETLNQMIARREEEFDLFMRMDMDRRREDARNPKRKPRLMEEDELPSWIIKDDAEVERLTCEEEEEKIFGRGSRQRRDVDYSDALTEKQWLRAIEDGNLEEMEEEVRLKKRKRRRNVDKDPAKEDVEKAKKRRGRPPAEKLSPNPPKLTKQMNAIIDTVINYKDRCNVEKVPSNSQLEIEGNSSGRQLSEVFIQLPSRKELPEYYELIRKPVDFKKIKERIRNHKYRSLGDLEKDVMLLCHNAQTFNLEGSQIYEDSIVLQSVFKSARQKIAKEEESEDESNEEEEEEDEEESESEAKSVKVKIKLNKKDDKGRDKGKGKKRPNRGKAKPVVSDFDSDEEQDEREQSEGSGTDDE
method-summary: SMARCA2 degradation assay (HiBiT-fusion HeLa cell line, 24 h, luminescence)
Type: cell-based
measured-quantity: DC50

In [3]: df
Out[3]:
                                    compound  measured_quantity  reported_value
 0  CC1CN(c2ccnc(C#CCNC(=O)c3cc4ncccn4n3)n2)CCN(c2cc(-c3ccccc3O)nnc2N)C1 (stereo not drawn) [Compound P-27]               DC50    50 to 500 nM
 1  CNCC#Cc1nccc(N2CCN(c3cc(-c4ccccc4O)nnc3N)[C@@H](C)C2)n1 [Compound P-292]               DC50    50 to 500 nM
 2  C[C@@H]1CCN(c2cc(-c3ccccc3O)nnc2N)CCN1c1ccnc(C#CCNC(=O)OC(C)(C)C)n1 [Compound P-238]               DC50    50 to 500 nM
 3  C/C=C/c1nccc(N2CCN(c3cc(-c4ccccc4O)nnc3N)CC[C@H]2C)n1 [Compound P-169]               DC50    50 to 500 nM
 4  C[C@@H]1CCN(c2cc(-c3ccccc3O)nnc2N)CCN1c1ccnc(C#CC2CN(CC(F)F)C2)n1 [Compound P-174]               DC50    50 to 500 nM
 5  Nc1nnc(-c2ccccc2O)cc1N1CCCN(c2ccnc(C#CC3COC3)n2)CC1 [Compound P-347]               DC50    50 to 500 nM
 6  Cc1nn2ccn(CC#Cc3nccc(N4CCN(c5cc(-c6ccccc6O)nnc5N)CC[C@H]4C)n3)c(=O)c2c1C [Compound P-336]               DC50    50 to 500 nM
 7  Nc1nnc(-c2ccccc2O)cc1N1C[C@H]2C[C@@H]1CN2c1ccnc(C#CCN2CCCCC2)n1 [Compound P-285]               DC50         < 50 nM
 8  COCc1cc(N2CCCN(c3cc(-c4ccccc4O)nnc3N)CC2)nc(C#CCNC(=O)c2nn(C)c(C)c2C)n1 [Compound P-126]               DC50    50 to 500 nM
 9  CC(C)(C)OC(=O)N1CCC(F)(C#Cc2nccc(N3CCCN(c4cc(-c5ccccc5O)nnc4N)CC3)n2)CC1 [Compound P-349]               DC50    50 to 500 nM
10  C[C@@H]1CCN(c2cc(-c3ccccc3O)nnc2N)CCN1c1ccnc(C#CCNc2ccn(C)n2)n1 [Compound P-331]               DC50    50 to 500 nM
11  Nc1nnc(-c2ccccc2O)cc1N1CC2CCC(C1)N2c1ccnc(C#CCn2cncn2)n1 [Compound P-289]               DC50    50 to 500 nM
12  C[C@@H]1CCN(c2cc(-c3ccccc3O)nnc2N)CCN1c1ccnc(C#CCNC(=O)c2cccnc2)n1 [Compound P-240]               DC50  500 to 5000 nM
13  CNc1cc(N2CCCN(c3cc(-c4ccccc4O)nnc3N)CC2)nc(C#CCNC(=O)c2nn(C)c(C)c2C)n1 [Compound P-141]               DC50  500 to 5000 nM
14  C[C@@H]1CCN(c2cc(-c3ccccc3O)nnc2N)CCN1c1ccnc(C#CCN2CCC3(CCC3)C2)n1 [Compound P-237]               DC50         < 50 nM

###

system-under-test: SMARCA4-HiBiT HeLa cells (protein which is expressed from the SMARCA4 gene) (Homo sapiens, UniProt P51532)
Construct: protein which is expressed from the SMARCA2 and SMARCA4 genes; host or cells: HeLa (SMARCA4-HiBiT engineered line)
method-summary: SMARCA4 degradation assay (HiBiT-fusion HeLa cell line, 24 h, luminescence)
Format: cell-based
condition-info: @ 1 μM
Text: SMARCA2 and SMARCA4 Degradation Assay Degradation of protein which is expressed from the SMARCA2 and SMARCA4 genes was monitored using engineered HiBiT-fusion HeLa cell lines from Promega. […] 24-hours post-treatment, protein levels were quantified with the addition of HiBiT lytic buffer, LgBiT protein, and HiBiT substrate, according to manufacturer's specifications. […]
Quick reference: inhibition at 1 µM of the listed items.
measured-quantity: inhibition at 1 µM

>>> print(df.to_string())
                                    compound  reported_value
 0  N#CC1CCN(CC#Cc2nccc(N3CCCN(c4cc(-c5ccccc5O)nnc4N)CC3)n2)CC1       30 to 70%
 1  C[C@@H](O)C#Cc1nccc(N2CCCN(c3cc(-c4ccccc4O)nnc3N)CC2)n1       30 to 70%
 2  C[C@@H]1CCN(c2cc(-c3ccccc3O)nnc2N)CCN1c1ccnc(C#CCNC(=O)c2cccnc2)n1           < 30%
 3  CCC1CN(CC#Cc2nccc(N3CCCN(c4cc(-c5ccccc5O)nnc4N)CC3)n2)c2ccccc2O1 (stereo not drawn)       30 to 70%
 4  C[C@@H]1CN(c2ccnc(C#CCNC(=O)c3cc4ncccn4n3)n2)CCN1c1cc(-c2ccccc2O)nnc1N           < 30%
 5  Nc1nnc(-c2ccccc2O)cc1N1CCCN(c2ccnc(C#CCNC3CC3)n2)CC1       30 to 70%
 6  Nc1nnc(-c2ccccc2O)cc1N1CCCN(c2ccnc(C#CCN3CCCC(O)C3)n2)CC1 (stereo not drawn)           < 30%
 7  Nc1nnc(-c2ccccc2O)cc1N1CCN(c2ccnc(C#CCNC(=O)c3ccn(C(F)F)n3)n2)CC1       30 to 70%
 8  C[C@@H]1CCN(c2cc(-c3ccccc3O)nnc2N)CCN1c1ccnc(C#CCn2cncn2)n1           < 30%
 9  Nc1nnc(-c2ccccc2O)cc1N1CC2CCN(c3ccnc(C#CCNC(=O)c4cc5ncccn5n4)n3)C2C1 (stereo not drawn)           > 70%
10  Nc1nnc(-c2ccccc2O)cc1N1CCCN(c2ccnc(C#CC3COC3)n2)CC1           > 70%
11  Nc1nnc(-c2ccccc2O)cc1N1CCCN(c2ccnc(C#CCN3CCn4c(nnc4C(F)(F)F)C3)n2)CC1       30 to 70%
12  Nc1nnc(-c2ccccc2O)cc1N1CC2CCC(C1)N2c1ccnc(C#CCNC(=O)c2cc3ncccn3n2)n1           < 30%
13  Nc1nnc(-c2ccccc2O)cc1N1CC[C@@H]2[C@H]1CN2c1ccnc(C#CCNC(=O)c2cc3ncccn3n2)n1           < 30%
14  NCC#Cc1nccc(N2C3CC2CN(c2cc(-c4ccccc4O)nnc2N)C3)n1           < 30%

Data provenance is patent US20260265238A1.
